# Protocol: Inhibition of rabbit skeletal muscle protein phosphatase 1 assessed as free phosphate ion release after 60 mins by malachite green method
# Parameters: species or system Oryctolagus cuniculus
Items are presented alongside their recorded pIC50.
pIC50 here is simply -log10 of the concentration when that concentration is written in mol/L.

{"columns": ["Compound", "pIC50"],
 "data": [
  ["C[C@@]12C(=O)OC(=O)[C@]1(C)[C@H]1CC[C@@H]2O1", 5.22]
]}

Kindly review the next compound as well.
Supply recorded pIC50 for O=C1OC(=O)C2C3CCC(O3)C12 (stereo not drawn) here.
5.11

* * *

# System: MCF7
# Protocol: Cytotoxicity against human MCF7 cells at 100 uM after 72 hrs by MTT assay
# Type: functional
# Measurement context: MCF7, 72 h
Each entry gets rule not met if its inhibition at 100 µM stays under 20%, and rule met if its inhibition at 100 µM is 20% or above.

Please review the following examples before continuing.
{"columns": ["Compound", "Label class"],
 "data": [
  ["O=C1[C@H]2CNC[C@H]2C(=O)N1CCN1CCOCC1", "rule not met"],
  ["O=C(O)[C@H](Cc1c[nH]cn1)N1C(=O)[C@H]2CSC[C@H]2C1=O", "rule not met"],
  ["CCOC(=O)C[C@@H](C(=O)OCC)N1C(=O)[C@H]2CNC[C@H]2C1=O", "rule not met"],
  ["NCCCC[C@@H](C(=O)O)N1C(=O)[C@H]2CSC[C@H]2C1=O", "rule met"],
  ["CCOC(=O)CC[C@@H](C(=O)OCC)N1C(=O)[C@H]2COC[C@H]2C1=O", "rule met"]
]}

Given CCC(CO)N1C(=O)[C@H]2COC[C@H]2C1=O (some centres not stated) , state whether its inhibition at 100 µM is at least 20%.
rule not met

Hi team, for NCCC[C@@H](C(=O)O)N1C(=O)[C@H]2CNC[C@H]2C1=O , is the recorded inhibition at 100 µM at or above 20%?
rule met

Is reported inhibition at 100 µM greater than or equal to 20% here: NCCC[C@@H](C(=O)O)N1C(=O)[C@H]2COC[C@H]2C1=O
rule not met

Kindly determine if inhibition at 100 µM recorded for CCC(CO)N1C(=O)[C@H]2CSC[C@H]2C1=O (some centres not stated) is above or exactly 20%.
rule not met

Answer whether inhibition at 100 µM of CC(CO)N1C(=O)[C@H]2CN(Cc3ccccc3)C[C@H]2C1=O (some centres not stated) is greater than or equal to 20%.
rule met

Check the entry CC(CO)N1C(=O)[C@H]2CNC[C@H]2C1=O (some centres not stated) : does inhibition at 100 µM equal or exceed 20%?
rule not met

* * *

# System: SW480
# Protocol: Cytotoxicity against human SW480 cells at 100 uM after 72 hrs by MTT assay
# Format: functional
# Measurement context: SW480, 72 h
Quantity: inhibition at 100 µM

Some compounds with recorded inhibition at 100 µM:
{"columns": ["Compound", "Result"],
 "data": [
  ["CCC(CO)N1C(=O)[C@H]2CSC[C@H]2C1=O (some centres not stated)", "< 10%"],
  ["NCCCC[C@@H](C(=O)O)N1C(=O)[C@H]2COC[C@H]2C1=O", "30%"],
  ["NCC[C@@H](C(=O)O)N1C(=O)[C@H]2CNC[C@H]2C1=O", "< 10%"],
  ["NCCC[C@@H](C(=O)O)N1C(=O)[C@H]2COC[C@H]2C1=O", "< 10%"],
  ["O=C1[C@H]2CNC[C@H]2C(=O)N1CCN1CCOCC1", "< 10%"],
  ["CC(CO)N1C(=O)[C@H]2CN(Cc3ccccc3)C[C@H]2C1=O (some centres not stated)", "12%"],
  ["O=C(O)[C@H](Cc1c[nH]cn1)N1C(=O)[C@H]2CNC[C@H]2C1=O", "< 10%"],
  ["O=C(O)[C@H](Cc1c[nH]cn1)N1C(=O)[C@H]2COC[C@H]2C1=O", "18%"]
]}

With those in mind, consider the next compound.
Write down inhibition at 100 µM measured for item CC(CO)N1C(=O)[C@H]2COC[C@H]2C1=O (some centres not stated)
< 10%
